molecular target: human CB1 receptor (Homo sapiens, UniProt P21554); construct: expressed in transfected cells; b94 says CHO for CB1; assay: CB1 receptor binding, [3H]CP55,940 displacement in membranes of transfected cells; settings: CB1 Ki
Sequence (P21554 whole entry): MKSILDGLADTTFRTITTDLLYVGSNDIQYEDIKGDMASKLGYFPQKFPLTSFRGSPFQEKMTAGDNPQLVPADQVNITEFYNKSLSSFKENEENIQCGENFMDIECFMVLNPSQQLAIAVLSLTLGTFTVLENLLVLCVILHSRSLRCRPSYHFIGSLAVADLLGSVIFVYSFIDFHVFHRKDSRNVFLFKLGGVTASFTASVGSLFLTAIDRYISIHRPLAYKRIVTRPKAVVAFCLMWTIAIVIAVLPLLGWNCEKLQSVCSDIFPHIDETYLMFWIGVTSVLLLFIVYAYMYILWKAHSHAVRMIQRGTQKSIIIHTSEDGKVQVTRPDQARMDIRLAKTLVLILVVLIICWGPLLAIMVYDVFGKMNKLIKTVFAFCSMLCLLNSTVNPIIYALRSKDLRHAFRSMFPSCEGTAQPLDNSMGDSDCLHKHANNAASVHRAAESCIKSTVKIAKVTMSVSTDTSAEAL
Consider the following compounds; for each one, report its Ki.
Your answer should be a plain number; it is taken to be in nM.

QUERY: Query: Ki; subject: CC1=CC[C@@H]2[C@@H](C1)c1c(O)cc(C(C)(C)CCCCn3cncn3)cc1OC2(C)C [O-2716, 1,2,4-Triazol-1-yl]
RESULT: 3.43

QUERY: Continue with CC1=CC[C@@H]2[C@@H](C1)c1c(O)cc(C(C)(C)CCCCN(C(=O)N3CCOCC3)C(=O)N3CCOCC3)cc1OC2(C)C [O-2620, Di(morpholino-1-carboxylic acid) amide]
RESULT: 3020

QUERY: Continue with CNC(=O)CCCCC(C)(C)c1cc(O)c2c(c1)OC(C)(C)[C@@H]1CC=C(C)C[C@@H]21 [O-2490, N-(Methyl)carboxamido]
RESULT: 18.7

QUERY: Continue with CC1=CC[C@@H]2[C@@H](C1)c1c(O)cc(C(C)(C)CCCCC(=O)N3CCCCCC3)cc1OC2(C)C [O-2421, Homopiperidino-carboxamido]
RESULT: 4.24

Values were extracted from patent US20080064679A1.
